src = ChEMBL document CHEMBL1131803

# testedTarget: UniProt:P14416
# assayName: Ability to displace [125I]iodosulpiride from human dopamine D2 (hD2) receptor transfected into CHO cells.
Output: class label from Ki. Mapping: band 1 (below 30 nM), band 2 (30 nM to below 80 nM), band 3 (80 nM or more)

The following molecules have reported results that may help.
| molecule | category |
| --- | --- |
| c1ccc(CN2CC3COc4ccccc4C3C2)cc1 (trans isomer) | band 3 |
| N#Cc1ccc2c(c1)[C@H]1CN(Cc3ccc(F)cc3)C[C@@H]1CO2 | band 1 |
| CC(=O)c1ccc(C(=O)Nc2ccc(CCN3CC4COc5ccc(C#N)cc5C4C3)cc2)cc1 (stereo not given) | band 1 |
| CC(=O)Nc1ccc(CCN2CC3COc4ccc(C#N)cc4C3C2)cc1 (stereo not given) | band 2 |

Q: Sort N#Cc1ccc2c(c1)C1CN(Cc3ccccc3)CC1CO2 (cis isomer) into one of the categories.
Ans: band 3

Q: Exam item: assign Clc1ccc2c(c1)C1CN(Cc3ccccc3)CC1CO2 (trans isomer) to the correct category.
Ans: band 2

Q: Place this molecule in its band: N#Cc1ccc2c(c1)C1CN(Cc3ccccc3)CC1CO2 (trans isomer)
Ans: band 1

Q: Which category does the recorded Ki put CCCN1CC2COc3ccc(C#N)cc3C2C1 (stereo not given) in?
Ans: band 3

Q: Input N#Cc1ccc2c(c1)[C@@H]1CN(Cc3ccc(F)cc3)C[C@H]1CO2 ; output its category
Ans: band 2

Q: Record CC(=O)Nc1ccc(CN2C[C@@H]3COc4ccc(C#N)cc4[C@H]3C2)cc1 — which class?
Ans: band 1

Q: Where would CC(=O)Nc1ccc(CCN2C[C@@H]3COc4ccc(C#N)cc4[C@H]3C2)cc1 land among the classes by reported Ki?
Ans: band 2

Q: Class? Entry: N#Cc1ccc2c(c1)[C@H]1CN(CCCCNC(=O)c3ccc(-c4ccccc4)cc3)C[C@@H]1CO2
Ans: band 2

----------
# testedTarget: D(2) dopamine receptor (Homo sapiens, UniProt P14416)
# Sequence (P14416 whole entry): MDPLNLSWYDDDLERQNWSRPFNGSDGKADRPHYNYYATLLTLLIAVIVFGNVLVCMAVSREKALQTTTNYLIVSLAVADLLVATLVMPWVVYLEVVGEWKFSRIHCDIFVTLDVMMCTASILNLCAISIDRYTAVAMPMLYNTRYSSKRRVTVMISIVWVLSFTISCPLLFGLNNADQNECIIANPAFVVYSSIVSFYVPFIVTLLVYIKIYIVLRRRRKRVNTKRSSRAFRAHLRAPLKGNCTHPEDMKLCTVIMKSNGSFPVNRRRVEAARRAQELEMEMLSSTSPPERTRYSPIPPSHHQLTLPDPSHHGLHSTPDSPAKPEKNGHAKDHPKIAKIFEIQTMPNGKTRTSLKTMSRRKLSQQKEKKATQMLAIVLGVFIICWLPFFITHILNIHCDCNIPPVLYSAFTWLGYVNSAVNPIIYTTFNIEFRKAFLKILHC
# assayName: Ability to displace [125I]iodosulpiride from human dopamine D2 (hD2) receptor transfected into CHO cells.
Below: a set of entries, each annotated with reported log10 of Ki.
A difference of one corresponds to tenfold Ki; all values are log10 with Ki in nM.

| compound | log10 of Ki |
| --- | --- |
| CC(=O)Nc1ccc(CCN2C[C@H]3COc4ccc(C#N)cc4[C@@H]3C2)cc1 | 1.60 |
| N#Cc1ccc2c(c1)OCC1CN(Cc3ccccc3)CC21 (trans isomer) | 2.70 |
| N#Cc1ccc2c(c1)[C@@H]1CN(Cc3ccccc3)C[C@H]1CO2 | 1.50 |
| N#Cc1ccc2c(c1)[C@@H]1CN(CCCCNC(=O)c3ccc(-c4ccccc4)cc3)C[C@H]1CO2 | 1.70 |
| CS(=O)(=O)Nc1ccc(CCN2CC3COc4ccc(C#N)cc4C3C2)cc1 (centres undefined) | 1.40 |

Q: Hello, please tell me recorded log10 of Ki for this one: N#Cc1ccc2c(c1)C1CN(Cc3ccc(F)cc3)CC1CO2 (centres undefined)
Ans: 1.90

Q: Tell me log10 of Ki reported for Fc1ccc2c(c1)C1CN(Cc3ccccc3)CC1CO2 (trans isomer)
Ans: 1.40

Q: # return recorded log10 of Ki for entry N#Cc1ccc2c(c1)[C@H]1CN(Cc3ccccc3)C[C@@H]1CO2
Ans: 1.30

Q: Please give measured log10 of Ki of the following entry: CC(=O)Nc1ccc(CN2CC3COc4ccc(C#N)cc4C3C2)cc1 (centres undefined)
Ans: 1.40
